- assayed.system: T1, CB1 surface expression (CB1 TRex-CHO / TRex-293 cells) (Homo sapiens, UniProt P21554)
- T1 construct: pcDNA4/TO native full length human CB1 receptor construct was transfected into tetracycline inducible system Trex-CHO and Trex-293 cells; expressed in transfected cells; tetracycline induced
- T1 sequence (P21554 whole entry): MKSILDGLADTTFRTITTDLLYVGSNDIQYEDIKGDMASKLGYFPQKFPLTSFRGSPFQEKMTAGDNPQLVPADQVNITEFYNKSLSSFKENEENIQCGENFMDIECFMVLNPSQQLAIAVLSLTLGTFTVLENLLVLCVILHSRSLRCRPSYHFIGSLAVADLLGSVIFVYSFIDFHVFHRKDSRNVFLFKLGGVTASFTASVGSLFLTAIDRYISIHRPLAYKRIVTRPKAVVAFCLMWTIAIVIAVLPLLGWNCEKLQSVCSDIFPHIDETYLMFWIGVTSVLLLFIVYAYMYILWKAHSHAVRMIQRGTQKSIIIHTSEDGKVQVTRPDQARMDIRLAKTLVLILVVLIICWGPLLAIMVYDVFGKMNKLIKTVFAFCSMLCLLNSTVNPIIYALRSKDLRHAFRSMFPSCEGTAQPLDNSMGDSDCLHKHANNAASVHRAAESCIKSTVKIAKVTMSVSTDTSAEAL
- Format: cell-based
- experimental.setup: antibody 300 nM pre-treatment, 1 μM WIN55,212 1 hour
outcome.measure: effect on WIN55,212 induced CB1 receptor internalization

>>> measurement("PA2LR3-P5E7: phage-derived CB1 antibody clone (antibody, V domains shown, PA2LR3-P5E7 Heavy Chain Variable region; PA2LR3-P5E7 Light Chain Variable region, phage-derived CB1 antibody clone) VH: EVQLQQSGAELVRPGSSVKISCKASGYAFSNYWMNWVKQRPGQGLEWIGQIYPGDGDTNFNGKFKGRAILTADISSNTAYMQLSSLTSEDSAVYFCARSHGNYFPYWGQGTLVTVSA VL: DIVLTQSPTTMAASPGEKITITCSASSSISSNYLHWYQQKPGFSPKLLIYRTSTLASGVPARFSGSGSGTSYSLTISSMEAEDAATYYCHQYHRSPHTFGSGTKLEIK")
"do not block"
>>> measurement("PA2LR3-P4C6: phage-derived CB1 binding IgG clone (antibody, V domains shown, PA2LR3-P4C6 Heavy Chain Variable region; PA2LR3-P4C6 Light Chain Variable region) VH: EVQLQQSGAELVRPGSSVKISCKASGYAFSYYWMNWVKQRPGQGLEWIGQIYPGDGDTNYNGKFKGKATLTADKSSSTAYMQLSSLTSEDSAVYFCARSHGNYFPYWGQGTLVTVSA VL: DIVITQSPAIVSASLGERVTMTCTASSSVSSSYLHWYQQKPGSSPKLWIYSTSNLASGVPARFSGSGSGTSYSLTISSMEAEDAATYYCQQWSSYPLTFGAGTKLEIK")
"do not block"
